Counter-ions that a name gives are not always drawn.
melting point by entry:

The examples below pair each entry with its known result.
CCN1Cc2ccccc2C(c2ccc3sccc3c2O)C1 (stereo not drawn) (as salt: fumarate) [Example 89 (+)]: 158 to 159 °C
CN1Cc2cc(-c3cccnn3)ccc2C(c2ccc3ccccc3c2)C1 (single isomer, unassigned; (+)) (as salt: maleate) [Example 137]: 86 to 88 °C
CN1Cc2cc(C#N)ccc2C(c2cc3ccccc3s2)C1 (stereo not drawn) (as salt: maleate) [Example 79 (−)]: 80 to 84 °C
CN1Cc2cc(N3CCOCC3)ccc2C(c2cccc3sccc23)C1 (racemic) (as salt: maleate): 103 to 107 °C
CN1Cc2cc(-c3cccnn3)ccc2C(c2cccc3sccc23)C1 (racemic) (as salt: maleate): 94 to 97 °C
COc1c(O)ccc2c1CN(C)CC2c1ccc2ccccc2c1.O=C(O)/C=C\C(=O)O (centres unmarked): 85 to 90 °C
CN1Cc2ccccc2C(c2ccc3sncc3c2)C1.O=C(O)/C=C\C(=O)O (stereo not drawn) [Example 135 (−)-enantiomer]: 127 to 129 °C

Note: attention shifts to another entry.
Field melting point (entry CN1Cc2cc(-c3cncnc3)ccc2C(c2cc3ccccc3s2)C1 (racemic) (as salt: maleate) [Example 73] ) reads 103 to 107 °C
